# PROTOCOL DETAILS: chemical genetic growth profiling, strain panel (AID 1159580);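 further: tested at 20 µM; growth read once vehicle control cultures reached saturation at 30 °C; 1 = growth at the plate median or of vehicle wells; lower values mean less growth of the strain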
# ASSAY CONDITIONS: S. cerevisiae deletion strains, growth OD, locus YEL061C, strain CIN8 (second series), active compounds read low
About 2,000 (36%) of roughly 5,500 compounds were called active. Inconclusive results (about 18%) are left out. Some of the results follow.
MEASURE NAME: normalized growth
// return a plain number; no unit text

# example entries with known answers
CCCNC(C)C(=O)Nc1ccccc1C (stereo not drawn) :: 1.01
COc1ccccc1OCC(O)CN1CCN(CC(=O)Nc2c(C)cccc2C)CC1 (stereo not drawn) :: 0.997
C[C@]12CCC3c4ccc(OS(=O)(=O)O)cc4CCC3C1CCC2=O (stereo partly drawn) :: 1.03
CCC(COC(=O)c1cc(OC)c(OC)c(OC)c1)(c1ccccc1)N(C)C (stereo not drawn) :: 0.985

Exam item: Suppose we examine the compound CCOP(=S)(OCC)Oc1ccc2c(C)c(Cl)c(=O)oc2c1 ; what normalized growth value has been reported?
Marked response: 0.962

Exam item: Likewise for C=CC1=C(C)/C(=C/c2[nH]c(Cc3[nH]c(/C=C4\NC(=O)C(C)=C4C=C)c(C)c3CCC(=O)O)c(CCC(=O)O)c2C)NC1=O ?
Marked response: 0.989

Exam item: Likewise for CN(Cc1cc(Br)cc(Br)c1N)C1CCCCC1 ?
Marked response: 0.991

Exam item: Likewise for CC[C@@H](C(=O)[C@@H](C)[C@@H](O)[C@H](C)[C@@H]1O[C@@H]([C@@H](CC)C(=O)O)CC[C@@H]1C)[C@H]1OC2(C=C[C@@H](O)[C@]3(CC[C@@](C)([C@H]4CC[C@](O)(CC)[C@H](C)O4)O3)O2)[C@H](C)C[C@@H]1C (stereo partly drawn) ?
Marked response: 0.948

Exam item: Likewise for NC(=O)c1ccc(N)nc1 ?
Marked response: 1

Exam item: Likewise for CCOC(N)=O ?
Marked response: 1.01

Exam item: Likewise for S=c1[nH]c2ccccc2s1 ?
Marked response: 0.973

Exam item: Likewise for OC/C=C/c1ccc(O)c(O)c1 ?
Marked response: 0.991

Exam item: Likewise for COc1cc(/C=C/C(=O)O)cc(OC)c1OC ?
Marked response: 0.99

Exam item: Likewise for CC1(C)O[C@@H]2CC3C4CCC5=CC(=O)C=C[C@]5(C)C4[C@@H](O)C[C@]3(C)[C@]2(C(=O)CO)O1 (stereo partly drawn) ?
Marked response: 1

Exam item: Likewise for O=C(O)CNCP(=O)(O)O ?
Marked response: 1.02

Exam item: Likewise for COc1ccc(/C=C/C(=O)O)cc1OC ?
Marked response: 0.976

Exam item: Likewise for Nc1ccc(S(=O)(=O)Nc2nccs2)cc1 ?
Marked response: 1.01

---

# PROTOCOL DETAILS: chemical genetic growth profiling, strain panel (AID 1159580)
# ASSAY CONDITIONS: S. cerevisiae deletion strains, growth OD, locus YOR184W, strain ser1, active compounds read low
The whole screen tested about 5,500 compounds, of which about 2,000 (36%) were called active. Roughly 18% stayed inconclusive and do not appear here. The list shows a part of the results.
Label key: met means normalized growth under 1; not met means normalized growth of 1 or more.

Known results for compounds:
CCOc1ccc2c(c1)C(C)=CC(C)(C)N2 :: met
C=CC1=C(C)/C(=C/c2[nH]c(Cc3[nH]c(/C=C4\NC(=O)C(C)=C4C=C)c(C)c3CCC(=O)O)c(CCC(=O)O)c2C)NC1=O :: not met
CC1(C)CC2C1CCC1(C)OC1CCC2(C)O (stereo unspecified) :: not met

Moving on to the next compound.
Exam item: Hi there! Is normalized growth for CC(=O)O[C@H]1C[C@@H](OC(C)=O)C(C)(C)C2C[C@@H](OC(C)=O)[C@]3(C)C(CC[C@@]4(C)[C@H](c5ccoc5)C(=O)[C@H]5O[C@]543)[C@]21C (stereo partly specified) below 1, do you know?
Marked response: met

---

# PROTOCOL DETAILS: chemical genetic growth profiling, strain panel (AID 1159580)
# ASSAY CONDITIONS: S. cerevisiae deletion strains, growth OD, locus YDL214C, strain PRR2, active compounds read low
About 2,000 (36%) of roughly 5,500 compounds were called active. Inconclusive results (about 18%) are left out. This is one part of the list.
Label key: label 1 means normalized growth under 0.9; label 0 means normalized growth of 0.9 or more.

CCC1CCC(C)N(C(=S)Nc2ccc(Br)cc2C)C1 (stereo not given) :: label 0
CCCC1c2ccsc2CCN1C(=S)Nc1ccc(Cl)cc1Cl (stereo not given) :: label 0
CCCCCc1ccc(S(=O)(=O)Nc2ccc3c(c2)C(=O)OC3)cc1 :: label 0
Nc1cc(-c2ccc(OC(F)(F)F)cc2)nn1-c1ccc(Cl)c(Cl)c1 :: label 1
CC(=O)C(Sc1nc2ccccc2s1)C(C)=O :: label 1

Moving on to the next molecule.
Exam item: Hi there! Is normalized growth for CSc1c(C#N)c(-c2ccc(Cl)cc2)nn1C(=O)c1ccccc1Cl below 0.9, do you know?
Marked response: label 0

---

# PROTOCOL DETAILS: chemical genetic growth profiling, strain panel (AID 1159580);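 further: tested at 20 µM; growth read once vehicle control cultures reached saturation at 30 °C; 1 = growth at the plate median or of vehicle wells; lower values mean less growth of the strain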
# ASSAY CONDITIONS: S. cerevisiae deletion strains, growth OD, locus YOR136W, strain idh2, active compounds read low
In all, about 5,500 compounds went through this assay and about 2,000 (36%) were called active. Another 18% or so got no clear call; they are omitted. The list shows a part of the results.
// reported normalized growth per item
// return a plain number; no unit text

# example entries with known answers
CC(=O)OC/C=C(C)/C=C/C=C(C)/C=C/C1=C(C)CCCC1(C)C :: 1
CC1=C(/C=C/C(C)=C/C=C/C(C)=C/C(=O)O)C(C)(C)CCC1 :: 1.04
O=C(O)c1cc(O)c(O)c(O)c1 :: 1.02
COc1cc(C(=O)O)c(O)c2c1OCO2 :: 1
COc1cc(C(=O)O)cc(OC)c1O :: 0.971

Exam item: Suppose we examine the compound NC(=O)c1cnccn1 ; what normalized growth value has been reported?
Marked response: 0.988

Exam item: Likewise for CC1=C(/C=C/C(C)=C/C=C/C(C)=C/CO)C(C)(C)CCC1 ?
Marked response: 0.992

Exam item: Likewise for Cc1cccc(CN2CCN(C(c3ccccc3)c3ccc(Cl)cc3)CC2)c1 (stereo unspecified) ?
Marked response: 0.937

Exam item: Likewise for O=C(/C=C/c1ccc(O)c(O)c1)O[C@@H]1C[C@](O)(C(=O)O)C[C@@H](O)[C@H]1O ?
Marked response: 1.03

Exam item: Likewise for CC1=C(/C=C/C(C)=C/C=C/C(C)=C/C=C/C=C(C)/C=C/C=C(C)/C=C/C2=C(C)CCCC2(C)C)C(C)(C)CCC1 ?
Marked response: 1.02

Exam item: Likewise for CC1=C(/C=C/C(C)=C/C=C/C(C)=C\C(=O)O)C(C)(C)CCC1 ?
Marked response: 0.991

---

# PROTOCOL DETAILS: chemical genetic growth profiling, strain panel (AID 1159580);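 further: tested at 20 µM; growth read once vehicle control cultures reached saturation at 30 °C; 1 = growth at the plate median or of vehicle wells; lower values mean less growth of the strain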
# ASSAY CONDITIONS: S. cerevisiae deletion strains, growth OD, locus YCL016C, strain dcc1, active compounds read low
The whole screen tested about 5,500 compounds, of which about 2,000 (36%) were called active. Another 18% or so got no clear call; they are omitted. Some of the results follow.
MEASURE NAME: normalized growth
// return a plain number; no unit text

# example entries with known answers
CC1(C)C2CC(=O)O[C@@]3(C)C4=CC(=O)O[C@@H](c5ccoc5)[C@]4(C)CCC3[C@@]2(C)C=C[C@H]1O (stereo partly drawn) :: 1.01
CO[C@@H]1[C@@H](O[C@@H]2O[C@H](C)[C@@H](O[C@H]3C[C@@](C)(O)[C@H](O)[C@H](C)O3)[C@H](N(C)C)[C@H]2O)[C@@H](CC=O)C[C@@H](C)[C@@H](O[C@H]2CC[C@H](N(C)C)[C@@H](C)O2)/C=C/C=C/C[C@H](C)OC(=O)C[C@H]1O :: 1.01

Could you now look at the following compound, please?
Exam item: Suppose we examine the compound c1ccc(-c2ccc(C(c3ccccc3)n3ccnc3)cc2)cc1 (stereo not drawn) ; what normalized growth value has been reported?
Marked response: 0.0733

---

# PROTOCOL DETAILS: chemical genetic growth profiling, strain panel (AID 1159580);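 further: tested at 20 µM; growth read once vehicle control cultures reached saturation at 30 °C; 1 = growth at the plate median or of vehicle wells; lower values mean less growth of the strain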
# ASSAY CONDITIONS: S. cerevisiae deletion strains, growth OD, locus YPL241C, strain CIN2
The whole screen tested about 5,500 compounds, of which about 2,000 (36%) were called active. Another 18% or so got no clear call; they are omitted. Cut-off read from the data, not from the text of the source: active = normalized growth mostly below about 0.91 (no sharp cut-off); inconclusive = no clear call, values can overlap the other calls; inactive = mostly above about 0.92. The list shows a part of the results.
Field 'call' accepts active, inactive

O=c1cccc2n1C[C@H]1CNCC2C1 :: inactive
CCCn1c(=O)c2[nH]c(-c3ccc(OCC(=O)NCCN)cc3)nc2n(CCC)c1=O :: inactive
CCOC(=O)c1c(C)csc1N :: inactive
C[C@@H]1C[C@@H]([C@H](O)CC2CC(=O)NC(=O)C2)C(=O)[C@@H](C)C1 :: active
CCOC(=O)c1c(-c2ccc(F)cc2)csc1N :: active

Exam item: Recorded test outcome, item O=S(=O)(c1cc(Br)c(Br)s1)N1CCCCC1
Marked response: inactive

Exam item: Likewise for COP(=S)(OC)Oc1ccc(SC)c(C)c1 ?
Marked response: inactive
